- Tested on: DU-145 prostate
- RUN_DESCRIPTION: NCI tumour cell line growth inhibition, 48 h
Reported TGI by item:
PROPERTY_LABEL: TGI (µM)

COMPOUND | PROPERTY_LABEL | UNIT_INFO | RESULT_QUALIFIER | ASSAY_RESULT
O=C1C(Cl)=C(Nc2cccc(O)c2)C(=O)N1c1ccc(Cl)c(Cl)c1 | TGI | µM | = | 42.1
Cc1ccc2[nH]c3[nH]c(=O)[nH]c(=O)c3c2c1 | TGI | µM | > | 100
CO/N=C1/c2sccc2[C@H](NC(=O)C(F)(F)F)[C@@H]1O | TGI | µM | > | 100
C[C@]12C=CC(=O)C=C1CC[C@@H]1[C@@H]2C(=O)C[C@@]2(C)[C@H]1CC[C@]2(O)C(=O)CO | TGI | µM | > | 100
COc1cc(C2CC(c3cc(C)ccc3C)=NN2c2ccc(S(=O)(=O)NC(=O)NCc3ccccc3)cc2)cc(OC)c1OC (stereo not given) | TGI | µM | = | 30.8

----------
Reported TGI by item:
- System: IGROV1 ovarian
- RUN_DESCRIPTION: NCI tumour cell line growth inhibition, 48 h

COMPOUND | TGI
CC1(C)CCc2cc3c(-c4ccccc4)cc(=O)oc3cc2O1 | > 100 µM
N=C(N)n1[nH]c2c(c1=O)CCCC2 | > 100 µM
C=C(C)[C@@]1(O)CCC[C@H]1NC(=O)OC(C)(C)C | > 100 µM
COc1ccc(-c2cc(/C=C3\C(=O)Nc4ccc(OC)cc43)[nH]n2)cc1 | > 100 µM
Cc1cc2c(cc1C)[n+](=O)c(C(=O)N1CCN(c3ccc([N+](=O)[O-])cc3)CC1)c(C)n2[O-] | 87.7 µM
COc1ccc([N-]/C(=N\n2c(=O)c(C)nn(C)c2=S)N(c2ccc(OC)cc2)c2nn3c(=O)c(C)n[n+](C)c3s2)cc1 | > 100 µM
O=C1C2CCC(C2)C12CC1(c3ccccc3)C(=O)c3ccccc3N1O2 (stereo unspecified) | > 100 µM
NCC1OC(OC2C(CO)OC(OC3C(O)C(N)CC(N)C3OC3OC(CO)C(O)C(O)C3N)C2O)C(N)C(O)C1O (stereo unspecified) | > 50 µg/mL
CCCCN(CCCC)CCCN=c1nc2c(c(N)n1-c1ccccc1)c(=S)n(-c1ccccc1)c(=S)n2-c1ccccc1 | 3.79 µM
CC(=O)OC1CCC2(C)C(=CCC3C2CCC2(C)C(C(C)C(=O)O)CCC32)C1 (stereo unspecified) | > 100 µM
CCN1CC2=C(NC(=S)NC2c2cc(OC)c(OC)c(OC)c2)/C(=C/c2cc(OC)c(OC)c(OC)c2)C1 (stereo unspecified) | > 100 µM
CC(C)(C)OC(=O)NC(Cc1cnc[nH]1)C(=O)N1CCCC1C(N)=O (stereo unspecified) | > 100 µM
COC(=NCCC1=CCCCC1)OC | > 100 µM
COc1c(CNC(=O)CCl)cc2[nH]c(C)cc2c1CNC(=O)CCl | > 100 µM
CN(C)CCCNc1nnc(NCCCN(C)C)c2c(=O)c3sccc3[nH]c12 | > 100 µM
CC1C/C(=N\N(C)C)C(C#N)(C#N)C1(C#N)C#N (stereo unspecified) | 38.8 µM
N#Cc1c(NC(=O)CN2CCOCC2)sc2c1CCCC2 | > 25 µM
COc1ccc(/C=N/NC(=O)NCCCN(C)C)cc1 | > 100 µM
CCOC(=O)c1c(C)n2c(=O)cc(C)c3c(OC(C)=O)c(OC(C)=O)cc1c32 | 41.9 µM
O=c1cc(CC(O)(C(F)(F)Cl)C(F)(F)Cl)[nH]n1-c1ccccc1 | > 100 µM
O=C(O)CCC1(Br)CCCCC(Br)C1=O (stereo unspecified) | > 100 µM
CN(C)CCNC(=O)c1cccc2nc3cccc(F)c3nc12 | 9.67 µM
CCn1c(=O)ccc2ccc(N(CCO)CCO)nc21 | > 100 µM
C/C(=N/NC(=O)C(N)=O)C(CC(C(=O)Nc1ccccc1C)/C(C)=N\NC(=O)C(N)=O)C(=O)Nc1ccccc1C (stereo unspecified) | > 100 µM
CC1=CCC[C@@H]2[C@@](C)(Cc3cc(O)ccc3O)[C@H](C)CC[C@@]12C | 18.2 µM
CCCN(CCC)CCCNC(=O)c1cc2c(-c3ccc(OC)c(OC)c3)nn(C)c2s1 | > 100 µM
Cc1cc(NS(=O)(=O)c2ccc(NC(=O)c3cccc4c(Nc5ccc(S(=O)(=O)Nc6cc(C)on6)cc5)c5ccccc5nc34)cc2)no1 | 76.5 µM
COC(=O)[C@H](CC(C)C)NC(=O)NC(=O)NC(=O)CI | 4.64 µM
COc1cccc(NC(=O)CC(=O)N2NC(C)C(N=Nc3cccc(C(=O)O)c3)C2=O)c1 (stereo unspecified) | > 100 µM
Cc1ccc(S(=O)(=O)Oc2ccc(OS(=O)(=O)c3ccc(C)cc3)c3c2C(=O)c2ccccc2C3=O)cc1 | > 100 µM
O=C(Nc1nc2ccc([N+](=O)[O-])cc2[n+]([O-])n1)C(F)(F)F | 44.5 µM
Cc1ccc2c(c1)[nH]c(=S)n2C=C1C(=O)CC(C)(C)CC1=O | > 100 µM
CC(=O)Nc1cc2c(cc1O)CC[C@@H]1[C@@H]2CC[C@]2(C)[C@@H](O)CC[C@@H]12 | > 100 µM
CCCCCC(=O)OCC1(CO)C/C(=C\CC(C(C)C)C(C)C)C(=O)O1 (stereo unspecified) | > 100 µM
O=C1/C(=C\c2coc3ccccc3c2=O)c2ccccc2N1c1c(Cl)cccc1Cl | 5.91 µM
COc1cccc(C2C3=C(COC3=O)N(CCO)c3cc4c(cc32)OCCO4)c1 (stereo unspecified) | 0.906 µM
CC1(C)C[C@H]2C=C(C=O)[C@]34C[C@]3(C(=O)OC4O)[C@H]2C1 (stereo partly specified) | 9.75 µM
CC(C)C(=O)/C=C/c1ccc(Cl)cc1 | 46.3 µM
O=C(Nc1ccccc1C(=O)O)/C(=C/c1ccccc1)NC(=O)c1ccccc1 | > 100 µM
O=C1Nc2ccccc2Nc2nc3cccccc-3c21 | > 100 µM
COc1ccc(Cc2cnc(NC(=O)c3sc4ccccc4c3Cl)s2)cc1 | > 100 µM
